# Tested on: PPARg:RXRa (Homo sapiens, UniProt P37231;P19793 full;full)
# Sequence (P37231 29-505, chain 1 of 2): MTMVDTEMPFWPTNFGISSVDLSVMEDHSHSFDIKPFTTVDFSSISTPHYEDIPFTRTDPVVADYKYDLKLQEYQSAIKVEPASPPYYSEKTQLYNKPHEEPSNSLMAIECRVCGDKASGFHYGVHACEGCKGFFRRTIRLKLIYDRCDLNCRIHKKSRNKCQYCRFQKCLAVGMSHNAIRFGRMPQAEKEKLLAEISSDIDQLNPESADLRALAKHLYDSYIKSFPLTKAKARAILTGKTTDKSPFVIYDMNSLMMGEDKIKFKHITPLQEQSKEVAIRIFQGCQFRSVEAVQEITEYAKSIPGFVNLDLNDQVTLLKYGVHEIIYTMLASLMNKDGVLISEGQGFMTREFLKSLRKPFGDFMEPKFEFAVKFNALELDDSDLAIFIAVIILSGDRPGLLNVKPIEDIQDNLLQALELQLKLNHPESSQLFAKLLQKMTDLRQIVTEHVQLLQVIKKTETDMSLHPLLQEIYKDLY
# Sequence (P19793 whole entry, chain 2 of 2): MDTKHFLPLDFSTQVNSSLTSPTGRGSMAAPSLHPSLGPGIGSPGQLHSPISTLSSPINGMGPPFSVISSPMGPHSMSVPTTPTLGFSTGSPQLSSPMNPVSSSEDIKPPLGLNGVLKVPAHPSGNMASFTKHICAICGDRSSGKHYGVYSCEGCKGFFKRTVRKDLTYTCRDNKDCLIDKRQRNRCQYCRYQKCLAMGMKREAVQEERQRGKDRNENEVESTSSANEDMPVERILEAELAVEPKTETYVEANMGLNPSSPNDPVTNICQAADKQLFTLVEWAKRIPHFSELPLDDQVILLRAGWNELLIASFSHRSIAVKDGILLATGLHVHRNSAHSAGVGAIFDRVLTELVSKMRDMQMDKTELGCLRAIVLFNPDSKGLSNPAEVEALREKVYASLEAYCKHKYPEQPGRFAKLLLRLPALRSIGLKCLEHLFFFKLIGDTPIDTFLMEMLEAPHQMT
# Assay explanation: no ligand; PBM; 180 nM : 90 nM RXRa; PBS pH 7.4, 2% milk, 0.02% Triton X-100, 1 mM DTT, BSA, 0.4 mg/ml salmon testes DNA
# Experimental setup: tags: His kept;His cleaved; copies: 1;1; label: surface-attached array probe
Measure: binding signal

What measured binding signal goes with NRC3_wobSeed1_DR0_C7G_o1 (dsDNA) DNA 1: GCCAAAGTAGGTCAAGGTCAAAGTCGGTTTGTGCCAGCGATTGACAGCGTAGAATGAAGG DNA 2: CCTTCATTCTACGCTGTCAATCGCTGGCACAAACCGACTTTGACCTTGACCTACTTTGGC ?
10 PBM z-score against 500 random probes

src = paper PMC6555819
